test system: Escherichia coli; test: Ability to inhibit the phenylalanine synthesis in Escherichia coli was determined; format: functional; settings: read-out: ED50 (the source's name)
Could you please report measured EC50 for the items listed next?
Numbers only, in µM.

Look over these answered cases.
compound: CSC[S@+]([O-])C[C@@H](CO)NC(=O)/C=C/c1c(C)nc(O)nc1O
system: Escherichia coli
property: EC50
reported-result: 2000
//
compound: CSC[S@+]([O-])C[C@H](CO)NC(=O)/C=C/c1c(C)[nH]c(=O)[nH]c1=O
system: Escherichia coli
property: EC50
reported-result: 8.5
//
compound: Cc1nc(O)nc(O)c1/C=C/C(=O)NC(CO)C[S+]([O-])CSCc1ccccc1 (centres undefined)
system: Escherichia coli
property: EC50
reported-result: 0.6

Could you now consider this next compound?
// field: EC50; key: CCCCCCCCCC[S+]([O-])CC(CO)NC(=O)/C=C/c1c(C)nc(O)nc1O (centres undefined) ; value = 1.8
